src = patent EP3816157A1

- System: MGC-803
- protocolDetails: MTT inhibition test against cell growth
- Format: cell-based, human
- measurementSetup: gastric cancer cell MGC-803, 48 hours
valueType: IC50 (µM)
Give bare numbers, in µM.

Problem: Value lookup for IC50; key = N.N.[Cl][Pt][Cl] [cisplatin]
Solution: 17.8

====

- System: HepG-2
- protocolDetails: MTT inhibition test against cell growth
- Type: cell-based, human
- measurementSetup: liver cancer cell HepG-2, 48 hours
valueType: pIC50
Answers are plain numbers, as −log10 of the molar value.

Problem: Form: Entry = N.N.[Cl][Pt][Cl] [cisplatin] | System = HepG-2 | pIC50 = ____
Solution: 4.73

====

- Tested on: T-24
- protocolDetails: MTT inhibition test against cell growth
- Type: cell-based, human
- measurementSetup: bladder cancer cell T-24, 48 hours
valueType: pIC50
One number for each entry, as −log10 of the molar value.

Problem: Value lookup for pIC50; key = N.N.[Cl][Pt][Cl] [cisplatin]
Solution: 4.83

====

- Test system: HeLa-229
- protocolDetails: MTT inhibition test against cell growth
- Assay type: cell-based, human
- measurementSetup: cervical cancer cell HeLa-229, 48 hours
valueType: IC50 (µM)
One number for each entry, in µM.

Problem: Value lookup for IC50; key = N.N.[Cl][Pt][Cl] [cisplatin]
Solution: 13.2
